Data provenance is patent US20260209345A1.

// values below are reported pIC50
measured.on: T1, recombinant LILRB1 ECD (human, UniProt Q8NHL6 24-461)
T1 construct: also called biotinylated LILRB1 ECD
assay.method.text: ELISA, LILRB1 ECD binding to HLA-G-Fc
pIC50: −log10 of the molar value.
value.kind: pIC50

* A-034 (antibody, V domains shown, tested as IgG) VH: QVQLVQSGAEVKKPGSSVKVSCKASGGTFSSYAISWVRQAPGQGLEWMGGIIPIFGTANYAQKFQGRVTITADESTSTAYMELSSLRSEDTAVYYCAKDLGTYSSGWPYYYGMDVWGQGTTVTVSS VL: SYELTQPPSVSVSPGQTASITCSGDKLGDKYASWYQQKPGQSPVLVIYQDSKRPSGIPERFSGSNSGNTATLTISGTQAEDEADYYCQLYGHTITVFGGGTKLTVL | 8.48
* A-009 (antibody, V domains shown, tested as IgG) VH: QVQLVQSGAEVKKPGSSVKVSCKASGGTFSVTAILWVRQAPGQGLEWMGGIIPSFTSANYASKFQGRVTITADESTSTAYMELSSLRSEDTAVYYCAKDLGTYSSGWPYYYGMDVWGQGTTVTVSS VL: SYELTQPPSVSVSPGQTASITCSGDKLGDKYASWYQQKPGQSPVLVIYQDSKRPSGIPERFSGSNSGNTATLTISGTQAEDEADYYCQSTTHTSFVFGGGTKLTVL | 8.26
* A-019 (antibody, V domains shown, tested as IgG) VH: QVQLVQSGAEVKKPGSSVKVSCKASGYTFTTSAMNWVRQAPGQGLEWMGGIIPYFSTANYAPKFQGRVTITADESTSTAYMELSSLRSEDTAVYYCAKDLGTYSSGWPYYYGMDVWGQGTTVTVSS VL: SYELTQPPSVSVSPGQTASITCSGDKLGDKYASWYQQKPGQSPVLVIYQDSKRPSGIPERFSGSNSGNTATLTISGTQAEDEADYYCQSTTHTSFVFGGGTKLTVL | 8.40
* A-048 (antibody, V domains shown, tested as IgG) VH: QVQLVQSGAEVKKPGSSVKVSCKASGYTFSKSAMSWVRQAPGQGLEWMGGIVPKFHTSVYAQKFQGRVTITADESTSTAYMELSSLRSEDTAVYYCAKGPPVGSSSWYTDWYFDLWGRGTLVTVSS VL: SYELTQPPSVSVSPGQTASITCSGDKLGDKYASWYQQKPGQSPVLVIYQDSKRPSGIPERFSGSNSGNTATLTISGTQAEDEADYYCALYGGGHTVVFGGGTKLTVL | 8.70
* A-003 (antibody, V domains shown, tested as IgG; also called parental antibody A-003) VH: QVQLVQSGAEVKKPGSSVKVSCKASGGTFSSYAISWVRQAPGQGLEWMGGIIPIFGTANYAQKFQGRVTITADESTSTAYMELSSLRSEDTAVYYCAKGPPVGSSSWYTDWYFDLWGRGTLVTVSS VL: SYELTQPPSVSVSPGQTASITCSGDKLGDKYASWYQQKPGQSPVLVIYQDSKRPSGIPERFSGSNSGNTATLTISGTQAEDEADYYCLSYGAHSHGVVFGGGTKLTVL | 7.78
